Tested on: human APOE RNA
TEST_PROTOCOL: Dose-dependent inhibition of human APOE RNA in HepG2 cells, electroporation, 24 hours (Example 6)
Assay type: cell-based
RUN_PARAMETERS: 8,000 nM
Strand notation (5' to 3'): a small letter for the sugar, then the base; units joined by * are phosphorothioate-linked, units joined directly phosphodiester-linked; [ ] holds rarer units or linkages, { } end groups; capitals alone tell only the bases. [ms] = mesyl phosphoramidate linkage; e = 2'-O-(2-methoxyethyl) (MOE); k = constrained ethyl (cEt); [5mC] = 5-methylcytosine; d = 2'-deoxy (DNA)
Is APOE RNA (% UTC) at least 20 % UTC? Then condition met. If not, condition not met.

Use these answered entries as a reference point.
>>> assigned_class("1693102: 6-10-4 MOE gapmer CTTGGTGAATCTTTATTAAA, linkages ssssoszzzssssszssss (e[5mC]*eT*eT*eG*eGeT*dG[ms]dA[ms]dA[ms]dT*d[5mC]*dT*dT*dT*dA[ms]dT*eT*eA*eA*eA) [compound 1693102]")
"condition met"
>>> assigned_class("1736520: 6-10-4 MOE gapmer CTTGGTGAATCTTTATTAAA, linkages sossoszzzssssssssss (e[5mC]*eTeT*eG*eGeT*dG[ms]dA[ms]dA[ms]dT*d[5mC]*dT*dT*dT*dA*dT*eT*eA*eA*eA) [compound 1736520]")
"condition not met"
>>> assigned_class("1736528 (e[5mC]*eT*eT*eG*eG*eTdG[ms]dA[ms]dA[ms]dT*d[5mC]*dT*dT*dT*dA[ms]dT*kT*eA*eA*eA; antisense) [Compound 1736528]")
"condition met"
>>> assigned_class("1736533 (e[5mC]*eT*eT*eG*eGeT*dG[ms]dA[ms]dA[ms]dT*d[5mC]*dT*dT*dT*dA[ms]dT*kT*eA*eA*eA; antisense) [Compound 1736533]")
"condition not met"
>>> assigned_class("1736523: 6-10-4 MOE gapmer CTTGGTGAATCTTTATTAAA, linkages ssoooszzssssssssoss (e[5mC]*eT*eTeGeGeT*dG[ms]dA[ms]dA*dT*d[5mC]*dT*dT*dT*dA*dT*eTeA*eA*eA) [compound 1736523]")
"condition not met"
>>> assigned_class("1736535 (e[5mC]*eT*eT*eG*eGkT*dG[ms]dA[ms]dA[ms]dT*d[5mC]*dT*dT*dT*dA[ms]dT*eT*eA*eA*eA; antisense) [Compound 1736535]")
"condition met"
>>> assigned_class("1736518: 6-10-4 MOE gapmer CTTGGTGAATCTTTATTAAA, linkages soossszzzssssssssss (e[5mC]*eTeTeG*eG*eT*dG[ms]dA[ms]dA[ms]dT*d[5mC]*dT*dT*dT*dA*dT*eT*eA*eA*eA) [compound 1736518]")
"condition met"
>>> assigned_class("1736513 (e[5mC]*eTeT*eG*eG*kT*dG[ms]dA[ms]dA[ms]dT*d[5mC]*dT*dT*dT*dA[ms]dT*eT*eA*eA*eA; antisense) [Compound 1736513]")
"condition not met"

Would you say 1736514 (e[5mC]*eTeT*eG*kG*kT*dG[ms]dA[ms]dA[ms]dT*d[5mC]*dT*dT*dT*dA[ms]dT*eT*eA*eA*eA; antisense) [Compound 1736514] shows APOE RNA (% UTC) at minimum 20 % UTC?
condition met

Would you say 1736532 (e[5mC]*eT*eT*eG*kG*kTdG[ms]dA[ms]dA[ms]dT*d[5mC]*dT*dT*dT*dA[ms]dT*eT*eA*eA*eA; antisense) [Compound 1736532] shows APOE RNA (% UTC) at minimum 20 % UTC?
condition met

Would you say 1736493 (e[5mC]*eTeT*eG*eG*eT*dG[ms]dA[ms]dA[ms]dT*d[5mC]*dT*dT*dT*dA[ms]dT*kT*kA*eA*eA; antisense) [Compound 1736493] shows APOE RNA (% UTC) at minimum 20 % UTC?
condition not met
